Taken from the supplement of paper PMC10567573.

B1: INTS3 (parent)
chain: EEITEESLEESVGKPLYLIFRNLC

Variants of: B1
Experiment: protein stability index of a GFP-peptide fusion (GPS, HEK-293T) (PSI 1-6); higher = more stable;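 note: lentivirally expressed fusions sorted by FACS into six bins by GFP to DsRed ratio, PSI derived from sequencing read proportions per bin multiplied by bin number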
Settings: c terminus: a fixed tail appended
QUANTITY NAME: protein stability index
Simply state the number, no unit and no words.

# VARIANT IDENTIFIER, protein stability index
data = [
    ("E10W", 2.21),
    ("S7M", 2.47),
    ("E1S", 2.58),
    ("S7E", 2.77),
    ("E6W", 1.96),
]

Read off the recorded protein stability index for "L18K"
3.1

Answer with the recorded protein stability index of "E1V" only.
2.31

Supply recorded protein stability index for "E10T" here.
2.55

Hello, please tell me recorded protein stability index for this one: "S11W"
2.4

For the variant "E2F" , give its reported protein stability index.
2.38

Write down protein stability index measured for item "T4G"
2.66
